Assay: gradient 5% acetonitrile 3 min, to 50% in 2 min, to 85% in 15 min, held 3 min, 100 µL/min
Conditions: column: Zorbax Extend-C18 2.1 x 50 mm; eluents: water / acetonitrile, 0.1% formic acid
# binarize RP-LC retention time: threshold 800 s inclusive, high side y, low side n

Molecule: Cc1cc(C)n(-c2ccc(C(=O)NCc3ccc(C)o3)cn2)n1
Class Name: y
//
Molecule: CCCCCn1c(=O)c2ccccc2n(Cc2nc(-c3ccc(C)cc3)no2)c1=O
Class Name: y
//
Molecule: Cc1ccc(C)c(NC(=O)c2cc(C(C)C)n3nccc3n2)c1
Class Name: y
//
Molecule: COc1ccc(C)cc1NC(=O)C1CCCN(S(=O)(=O)c2cc(-c3noc(C)n3)cs2)C1 (stereo not given)
Class Name: y
//
Molecule: Cc1cccc(-c2nnc(-c3cccc(S(=O)(=O)N4CCCCC4)c3)o2)c1
Class Name: y
//
Molecule: Cc1c(-c2cccc(NC(=O)C3CCCCC3)c2)nc2ncccn12
Class Name: n
//
Molecule: Cc1cc(N2CCCC2)n2nc(CN3CCN(c4ccc(F)cc4)CC3)nc2n1
Class Name: n
//
Molecule: CCc1cccc(NC(=O)C2CCN(S(=O)(=O)c3cn(C(C)C)cn3)CC2)c1
Class Name: y
//
Molecule: Cc1ccsc1C(=O)N1CCN(C(=O)c2cc(-c3ccccn3)n[nH]2)CC1
Class Name: n
//
Molecule: CCC(CC)C(=O)Nc1nc(-c2ccc3c(c2)NC(=O)CO3)cs1
Class Name: y
//
Molecule: COc1ccc(NC(=O)Cn2nc3nc(N4CCCC4)ccn3c2=O)cc1OC
Class Name: n
//
Molecule: O=C(CCNc1c(-c2ccc(F)cc2)nc2cnccn12)N1CCCCC1
Class Name: n
//
Molecule: O=C(NCc1ccc(F)cc1)c1cn2ccncc2n1
Class Name: n
//
Molecule: CC(C)CCNC(=O)C1CCN(Cc2cc3ccccc3n2Cc2ccccc2Cl)CC1
Class Name: y
//
Molecule: COc1ccccc1N1CCN(Cc2nc3nc(C)cc(N(C)C)n3n2)CC1
Class Name: n
//
Molecule: CN1CCN(c2ccc(NC(=O)C(C)(C)C)c(C(=O)O)c2)CC1
Class Name: n
//
Molecule: CC1CN(C(=O)C2CCN(S(=O)(=O)c3cccnc3)CC2)c2ccccc2O1 (stereo not given)
Class Name: y
//
Molecule: COc1ccc2c(c1)CCc1sc(NC(=O)c3ccc(F)cc3)nc1-2
Class Name: y

---

Assay: gradient 5% acetonitrile 3 min, to 50% in 2 min, to 85% in 15 min, held 3 min, 100 µL/min
Conditions: column: Zorbax Extend-C18 2.1 x 50 mm; eluents: water / acetonitrile, 0.1% formic acid
Entries and their measured RP-LC retention time follow.

Chemical Smiles: COc1ccc(NS(=O)(=O)c2ccc(-c3nnc(C4CCC4)o3)o2)cc1
Unit: s
RP-LC retention time: 864

Chemical Smiles: CC(C)CC(=O)Nc1nnc(SCc2nnc(-c3ccc4c(c3)OCO4)o2)s1
Unit: s
RP-LC retention time: 854

Chemical Smiles: CCNC(=O)CCc1nc2ccccc2n(CC(=O)NCCc2ccc(Cl)cc2)c1=O
Unit: s
RP-LC retention time: 773

Chemical Smiles: COc1ccc(NS(=O)(=O)c2cc3c(s2)CCN(C(=O)C2CC2)C3)cc1
Unit: s
RP-LC retention time: 774

Chemical Smiles: CCc1nnc(-c2ccc3ccn(CC(=O)Nc4ccc(CN5CCN(CC)CC5)cc4)c3c2)o1
Unit: s
RP-LC retention time: 612

Chemical Smiles: CCOC(=O)c1cc(S(=O)(=O)N2CCN(c3ncccn3)CC2)[nH]n1
Unit: s
RP-LC retention time: 766

Chemical Smiles: COc1cc(OC)cc(-c2noc(-c3cn(C)c4ccc(C)cc4c3=O)n2)c1
Unit: s
RP-LC retention time: 894

Chemical Smiles: COCCC(=O)N1CCCN(C2=NS(=O)(=O)C(c3ccc(F)cc3)=C2C)CC1
Unit: s
RP-LC retention time: 697

Chemical Smiles: COC(=O)c1ccsc1NC(=O)Cc1ccc2c(c1)OCO2
Unit: s
RP-LC retention time: 888

---

Listing of recorded RP-LC retention time by entry.
Experiment: gradient 5% acetonitrile 3 min, to 50% in 2 min, to 85% in 15 min, held 3 min, 100 µL/min
Conditions: column: Zorbax Extend-C18 2.1 x 50 mm; eluents: water / acetonitrile, 0.1% formic acid

Compound: CN(C)C(CNC(=O)Cc1cccs1)c1ccccc1Cl (stereo not given)
Unit: s
RP-LC retention time: 550
//
Compound: CCCNC(=O)N1C[C@@H]2CCCN3CCC[C@@H]([C@H]23)[C@H]1CCCC(=O)NCC1CC1
Unit: s
RP-LC retention time: 576
//
Compound: CCCn1cc(C(=O)Nc2cccc(F)c2)c(S(=O)(=O)N2CCSCC2)n1
Unit: s
RP-LC retention time: 1070
//
Compound: Cc1cc2c(cc1S(=O)(=O)N1CCCC1C(=O)NCc1ccccc1Cl)OC(C)C(=O)N2 (stereo not given)
Unit: s
RP-LC retention time: 812
//
Compound: O=C(CSc1nnc(-c2cccnc2)o1)c1ccc2c(c1)OCCO2
Unit: s
RP-LC retention time: 715
//
Compound: Cc1ccc(CNC(=O)CN2C(=O)C3CCCCN3c3ccc(S(=O)(=O)N4CCCC4)cc32)cc1 (stereo not given)
Unit: s
RP-LC retention time: 966
//
Compound: COc1cccc(-c2cc3n(n2)CCCN(C(=O)c2ccsc2)C3)c1
Unit: s
RP-LC retention time: 714
//
Compound: CCOC(=O)c1cnn(-c2ccc(C(=O)Nc3ccc(Br)cc3)cn2)c1N
Unit: s
RP-LC retention time: 1020
//
Compound: O=C(c1ccoc1)N1CCCC(OCc2nc(-c3ccncc3)no2)C1 (stereo not given)
Unit: s
RP-LC retention time: 668
//
Compound: Cc1cnc(C2CC2)n1C1CCCN(S(=O)(=O)Cc2ccccc2)C1 (stereo not given)
Unit: s
RP-LC retention time: 637
//
Compound: CN(C(=O)C(=O)Nc1ccc2nc3n(c(=O)c2c1)CCCCC3)c1ccccc1F
Unit: s
RP-LC retention time: 746
//
Compound: COc1ccc(NC(=O)Cn2nc3n(c2=O)CCCCC3)c(OC)c1
Unit: s
RP-LC retention time: 678
//
Compound: Cc1ccc(C(=O)N2CCC(n3c(-c4ccoc4)nc4cccnc43)C2)cc1C (stereo not given)
Unit: s
RP-LC retention time: 806
//
Compound: CC(C)c1ccc(-n2nc(N3CCN(C(=O)C4CC4)CC3)ccc2=O)cc1
Unit: s
RP-LC retention time: 810
//
Compound: Cc1ccc(C)c(CS(=O)(=O)N2CCC(CN3CCCCCC3)CC2)c1
Unit: s
RP-LC retention time: 700
//
Compound: CC(=O)N1CCN(c2nc3c(s2)CC(C(=O)NCc2ccc(F)cc2F)CC3)CC1 (stereo not given)
Unit: s
RP-LC retention time: 544
//
Compound: CC1Cn2cc(C(=O)NCCCN3CCOCC3)c(=O)c3c(Cl)ccc(c32)O1 (stereo not given)
Unit: s
RP-LC retention time: 624
//
Compound: Cc1ccc(-c2nc(-c3ccc4nnn(C)c4c3)no2)c(C)c1
Unit: s
RP-LC retention time: 1170
//
Compound: CN1C(=O)CSc2cnn(CC(=O)NC3CCCCC3)c(=O)c21
Unit: s
RP-LC retention time: 646
//
Compound: Cn1cc(C(=O)NCc2ccc(F)cc2)c(S(=O)(=O)N2CCSCC2)n1
Unit: s
RP-LC retention time: 845

---

RP-LC retention time by entry:
Experiment: gradient 5% acetonitrile 3 min, to 50% in 2 min, to 85% in 15 min, held 3 min, 100 µL/min
Conditions: column: Zorbax Extend-C18 2.1 x 50 mm; eluents: water / acetonitrile, 0.1% formic acid
Property Name: RP-LC retention time (s)

Compound: COc1ccc(NS(=O)(=O)c2cc3c(s2)CCN(C(=O)C2CCC2)C3)cc1Cl
Property Name: RP-LC retention time
Numeric Readout: 893

Compound: Cc1cc(NC(=O)C2CCN(C(=O)c3c[nH]c4ccccc34)CC2)no1
Property Name: RP-LC retention time
Numeric Readout: 639

Compound: COc1ccccc1C(=O)Nc1c2c(nn1C(C)(C)C)CS(=O)(=O)C2
Property Name: RP-LC retention time
Numeric Readout: 740

Compound: CCOc1ccc(CNC(=O)Cc2csc3nc(-c4ccc(C)c(C)c4)cn23)cc1
Property Name: RP-LC retention time
Numeric Readout: 847

Compound: Cc1cccc(-c2nc(C3CCN(S(=O)(=O)c4cc(C)ccc4C)CC3)no2)c1
Property Name: RP-LC retention time
Numeric Readout: 1320

Compound: Cn1c(=O)oc2cc(-c3noc(-c4ccc(C#N)cc4)n3)ccc21
Property Name: RP-LC retention time
Numeric Readout: 988

Compound: CCC(C)(C(=O)NC1CCCCC1)N(Cc1ccco1)C(=O)c1ccc2c(c1)OCO2 (stereo not given)
Property Name: RP-LC retention time
Numeric Readout: 564

Compound: COC(=O)c1ccc(NC(=O)Cc2csc3nc(-c4ccc(OC)c(OC)c4)cn23)cc1
Property Name: RP-LC retention time
Numeric Readout: 734

Compound: COc1ccc(-c2nc(-c3cn(Cc4ccccc4)nn3)no2)cc1OC
Property Name: RP-LC retention time
Numeric Readout: 892

Compound: CN(CC1(C)CCOCC1)S(=O)(=O)c1cn(C)cn1
Property Name: RP-LC retention time
Numeric Readout: 615

Compound: N#Cc1ccc(C(=O)Nc2cnn(-c3ncc(N4CCCC4)cn3)c2)cc1
Property Name: RP-LC retention time
Numeric Readout: 798

Compound: COc1ccc2c(c1)C1(CCN(C(=O)CC(C)(C)C)C1)C(=O)N2C (stereo not given)
Property Name: RP-LC retention time
Numeric Readout: 782

Compound: COc1cccc(CN2CCC3(CC2)C(OC)CN3c2cccc(F)c2)n1 (stereo not given)
Property Name: RP-LC retention time
Numeric Readout: 777

Compound: COc1cccc(-c2cc(C(N)=O)n(C)n2)c1
Property Name: RP-LC retention time
Numeric Readout: 646

Compound: COc1ccc(Cl)cc1S(=O)(=O)NCc1cccnc1-c1cccc(C)c1
Property Name: RP-LC retention time
Numeric Readout: 771

Compound: COc1ccc(-c2nnc3sc(-c4ccc(N(C)C)cc4)nn23)cc1
Property Name: RP-LC retention time
Numeric Readout: 1200

Compound: Cc1ccc(CN2C(=O)CN(S(C)(=O)=O)CC2(C)C(=O)NCc2ccc(Cl)cc2)cc1 (stereo not given)
Property Name: RP-LC retention time
Numeric Readout: 906

Compound: COc1ccc(N2CCN(c3cc(SCC(=O)Nc4cccc(OC)c4)ncn3)CC2)cc1
Property Name: RP-LC retention time
Numeric Readout: 894

Compound: CC1CCN(C(=O)C2c3ccccc3CCN2CC(=O)NCC2CCCCC2)CC1 (stereo not given)
Property Name: RP-LC retention time
Numeric Readout: 1070

Compound: COc1ccc(CN2CCN(C(c3ccc(F)cc3)c3ccc(F)cc3)CC2)c(OC)c1OC
Property Name: RP-LC retention time
Numeric Readout: 857
